Data credit: patent US20110045101A1

Give measured Test G disease control rating for each item. Keep answers brief.
# System: Septoria tritici
# procedure.text: Test G: wheat leaf blotch on wheat seedlings, sprayed the day before inoculation, visual disease rating
# Type: in vivo
# assay.context: 200 ppm; 100 = 100% disease control, 0 = no control relative to controls
Remember to quote the unit after the number.

Fill in the blank: the reported Test G disease control rating of COc1cc(F)c(-c2c(Cl)nc(SC)n2-c2ccc(C)cc2)c(F)c1 is ____. 99%

And what about the compound COc1cc(F)c(-c2c(Cl)nc(C)n2-c2ccccc2)c(F)c1C ? 94%

And what about the compound COc1ccc(F)c(-c2c(Cl)nc(C)n2-c2ccc(C#N)cc2)c1F ? 100%

And what about the compound Cc1ccc(-n2cnc(Br)c2-c2c(F)ccc(F)c2F)cc1 ? 99%

And what about the compound Fc1cccc(-n2cnc(Cl)c2-c2c(F)ccc(Br)c2F)c1 ? 97%

And what about the compound COc1cc(F)c(-c2c(Cl)ncn2-c2cccc(OC(F)F)c2)c(F)c1 ? 95%

And what about the compound Cc1nc(Cl)n(-c2ccc(Cl)nc2)c1-c1c(F)ccc(C#N)c1F ? 100%

And what about the compound Cc1nc(Cl)c(-c2c(F)ccc(F)c2F)n1-c1cccc(F)c1 ? 92%

And what about the compound Fc1cccc(F)c1-c1c(Cl)nc(Cl)n1-c1cccnc1Cl ? 100%

----------
Give measured Test G disease control rating for each item. Keep answers brief.
# Tested on: Septoria tritici
# procedure.text: Test G: wheat leaf blotch on wheat seedlings, sprayed the day before inoculation, visual disease rating
# Assay type: in vivo
# assay.context: 200 ppm; 100 = 100% disease control, 0 = no control relative to controls
Form entry: value (%) — number only.

Fill in the blank: the reported Test G disease control rating of COc1ccc(F)c(-c2c(C)nc(Br)n2-c2ccc(Cl)nc2)c1F is ____. 100

And what about the compound COc1cc(F)c(-c2c(Cl)nc(C)n2-c2cccc(OC(F)(F)F)c2)c(F)c1 ? 98

And what about the compound COc1ccc(-n2c(Cl)nc(C)c2-c2c(F)cccc2F)cn1 ? 100

And what about the compound Fc1ccc(Cl)c(F)c1-c1c(Cl)nc(Br)n1-c1ccc(Cl)cc1 ? 97

And what about the compound COc1cc(F)c(-c2c(Cl)nc(Cl)n2-c2ccc(Cl)nc2OC)c(F)c1 ? 100

And what about the compound COc1cc(F)c(-c2c(C)nc(Cl)n2-c2ccc(OC)nc2)c(F)c1 ? 100

And what about the compound COc1ccc(Cl)c(-c2c(Cl)ncn2-c2ccc(Cl)cc2)c1F ? 95

And what about the compound COc1ccc(-n2c(Cl)nc(Cl)c2-c2c(F)cccc2F)cn1 ? 98

And what about the compound COc1ccc(-n2c(Cl)nc(Cl)c2-c2c(F)cccc2F)c(Cl)n1 ? 98

And what about the compound Cc1nn(C)c(-c2c(F)cccc2Cl)c1-c1ccc(Cl)cc1 ? 60

And what about the compound N#Cc1ccc(F)c(-c2cnc(Cl)n2-c2ccc(Cl)nc2)c1F ? 98

And what about the compound COc1cc(Cl)cc(F)c1-c1c(Cl)ncn1-c1ccc(Cl)cc1 ? 0

And what about the compound COc1ccc(Cl)c(-c2c(Cl)nc(Cl)n2-c2ccc(Cl)cc2)c1F ? 98

And what about the compound Cc1nc(Cl)c(-c2c(F)ccc(F)c2F)n1-c1ccc(Cl)cc1 ? 94

And what about the compound COc1ccc(-c2c(Cl)ncn2-c2ccc(Cl)cc2)c(F)c1 ? 93

And what about the compound COc1nc(Cl)c(-c2c(Cl)nc(Cl)n2-c2ccc(Cl)c(F)c2)s1 ? 88

And what about the compound Fc1cc(F)c(-c2c(Cl)nc(Br)n2-c2ccc(OC(F)F)cc2)c(F)c1 ? 99

And what about the compound Cc1nn(C)c(-c2c(F)cccc2F)c1-c1ccc(Cl)c(F)c1 ? 40
